Please provide measured pIC50 for the entries that follow.
target: KRAS G13D (Homo sapiens (Human), UniProt P01116+P62937, G13D); assay: Ras-Raf (BRAF RBD) disruption / FRET / MOA assay, KRAS G13D; assay type: biochemical; conditions: read-out: IC50* KRAS G13D FRET data
Sequence (P01116-2 other isoform, or with tags, fused parts or gaps G13D): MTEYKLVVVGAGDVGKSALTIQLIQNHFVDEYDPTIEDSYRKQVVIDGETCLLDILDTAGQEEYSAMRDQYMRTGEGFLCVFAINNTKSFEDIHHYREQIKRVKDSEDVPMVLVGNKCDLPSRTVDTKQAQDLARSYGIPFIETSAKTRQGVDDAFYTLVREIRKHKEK
Sequence (P62937 whole entry): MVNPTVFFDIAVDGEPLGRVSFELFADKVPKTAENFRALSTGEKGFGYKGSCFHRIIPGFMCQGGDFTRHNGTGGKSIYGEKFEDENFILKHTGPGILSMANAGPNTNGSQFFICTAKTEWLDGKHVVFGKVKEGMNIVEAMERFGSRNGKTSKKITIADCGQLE
pIC50: −log10 of the molar value.

Tell me its pIC50 given CCn1c(-c2cccnc2[C@H](C)OC)c2c3cc(ccc31)-c1cccc(c1)C[C@H](NC(=O)[C@@H](COC1CN(C(=O)C#CC(C)(C)N(C)C(C)C)C1)C(C)C)C(=O)N1CCC[C@H](N1)C(=O)OCC(C)(C)C2 (atropisomer, axis not shown) as the entry.
< 5.00

Tell me its pIC50 given C=CC(=O)N1CCN(C(=O)N(C)[C@H](C(=O)N[C@H]2Cc3nc(cs3)-c3ccc4c(c3)c(c(-c3cccnc3[C@H](C)OC)n4CC)CC(C)(C)COC(=O)[C@@H]3CCCN(N3)C2=O)C(C)C)[C@H]2C[C@H]21 (atropisomer, axis not shown) as the entry.
6.00 to 7.00

Tell me its pIC50 given `CCn1c(-c2cncnc2)c2c3cc(ccc31)-c1cccc(c1)[C@@H](OC)[C@H](NC(=O)[C@H](C(C)C)N(C)C(=O)[C@H]1CCN(C(=O)C#CCN3CCOCC3)C1)C(=O)N1CCC[C@H](N1)C(=O)OCC(C)(C)C2` as the entry.
< 5.00

Tell me its pIC50 given C=CC(=O)N1CC[C@H](C(=O)N(C)[C@H](C(=O)N[C@H]2Cc3cccc(c3)-c3ccc4c(c3)c(c(-c3cnccc3[C@H](C)OC)n4CC)CC(C)(C)COC(=O)[C@@H]3CCCN(N3)C2=O)C(C)C)C1 (single isomer, unassigned) [Example A115] as the entry.
< 5.00

###

tested on: NCI-H358 (K-Ras G12C); experiment: CellTiter-Glo cell viability assay, NCI-H358; type: cell-based, human; settings: Homo sapiens, NCI-H358, 120 h, NCI-H358, 5-day treatment; class symbols; read-out: Additional H358 Cell Viability assay data (K-Ras G12C, IC50)
pIC50: −log10 of the molar value.
Please provide measured pIC50 for the entries that follow.

Tell me its pIC50 given CCn1c(-c2cccnc2[C@H](C)OC)c2c3cc(ccc31)-c1cccc(c1)C[C@H](NC(=O)[C@H](C(C)C)N(C)C(=O)[C@H]1CCN(C(=O)C#CC3(N(C)C)CN(C)C3)C1)C(=O)N1CCC[C@H](N1)C(=O)OCC(C)(C)C2 (atropisomer, axis not shown) [Example A499] as the entry.
7.00 to 8.00

Tell me its pIC50 given C=CS(=O)(=O)N1CC[C@H](C(=O)N(C)[C@H](C(=O)N[C@H]2Cc3cccc(c3)-c3ccc4c(c3)c(c(-c3cccnc3[C@H](C)OC)n4CC)CC(C)(C)COC(=O)[C@@H]3CCCN(N3)C2=O)C(C)C)C1 (atropisomer, axis not shown) [Example A124] as the entry.
7.00 to 8.00

Tell me its pIC50 given C=CC(=O)N(C)CCN1CCN(C(=O)N(C)[C@H](C(=O)N[C@H]2Cc3cccc(c3)-c3ccc4c(c3)c(c(-c3cccnc3[C@H](C)OC)n4CC)CC(C)(C)COC(=O)[C@@H]3CCCN(N3)C2=O)C(C)C)CC1 (atropisomer, axis not shown) [Example A539] as the entry.
6.00 to 7.00

Tell me its pIC50 given C=CC(=O)N1CC2(CCN(C(=O)N(C)[C@H](C(=O)N[C@H]3Cc4nc(cs4)-c4ccc5c(c4)c(c(-c4cccnc4[C@H](C)OC)n5CC)CC(C)(C)COC(=O)[C@@H]4CCCN(N4)C3=O)C(C)C)CC2)C1 (atropisomer, axis not shown) [Example A394] as the entry.
> 8.00

Tell me its pIC50 given CCn1c(-c2cccnc2)c2c3cc(ccc31)-c1cc(O)cc(c1)C[C@H](NC(=O)[C@H](C(C)C)N(C)C(=O)[C@H]1CCN(C(=O)C#CCN(C)C)C1)C(=O)N1CCC[C@H](N1)C(=O)OCC(C)(C)C2 [Example A142] as the entry.
6.00 to 7.00

Tell me its pIC50 given CCn1c(-c2cccnc2[C@H](C)OC)c2c3cc(ccc31)-c1csc(n1)C[C@H](NC(=O)[C@H](C(C)C)N(C)C(=O)N1C[C@@H]3CN(C(=O)C#CC(C)(C)N(C)C)CC[C@@H]31)C(=O)N1CCC[C@H](N1)C(=O)OCC(C)(C)C2 (atropisomer, axis not shown) [Example A625] as the entry.
7.00 to 8.00

Tell me its pIC50 given CCn1c(-c2cccnc2[C@H](C)OC)c2c3cc(ccc31)-c1cccc(c1)C[C@H](NC(=O)CCOC1CN(C(=O)C#CC(C)(C)N3CCC3)C1)C(=O)N1CCC[C@H](N1)C(=O)OCC(C)(C)C2 (atropisomer, axis not shown) [Example A478] as the entry.
7.00 to 8.00

Tell me its pIC50 given CCn1c(-c2cccnc2[C@H](C)OC)c2c3cc(ccc31)-c1cccc(c1)C[C@H](NC(=O)[C@H](C(C)C)N(C)C(=O)[C@@H]1CCN(C(=O)C#CC(C)(C)N3CCC3)C1)C(=O)N1CCC[C@H](N1)C(=O)OCC(C)(C)C2 [Example A476] as the entry.
> 8.00

Tell me its pIC50 given CCn1c(-c2cnccc2COC)c2c3cc(ccc31)-c1cncc(c1)C[C@H](NC(=O)[C@H](C(C)C)N(C)C(=O)[C@H]1CCN(C(=O)C#CCN(C)C)C1)C(=O)N1CCC[C@H](N1)C(=O)OCC(C)(C)C2 [Example A139] as the entry.
6.00 to 7.00

Tell me its pIC50 given C=CC(=O)N1CC[C@H](C(=O)N(C)[C@H](C(=O)N[C@H]2Cc3cc(O)cc(c3)-c3ccc4c(c3)c(c(-c3cncnc3)n4CC)CC(C)(C)COC(=O)[C@@H]3CCCN(N3)C2=O)C(C)C)O1 [Example A180] as the entry.
< 6.00

Tell me its pIC50 given C=CC(=O)N1CCC2(CCN(C(=O)N(C)[C@H](C(=O)N[C@H]3Cc4cccc(c4)-c4ccc5c(c4)c(c(-c4cccnc4[C@H](C)OC)n5CC)CC(C)(C)COC(=O)[C@@H]4CCCN(N4)C3=O)C(C)C)CC2)C1 (atropisomer, axis not shown) [Example A554] as the entry.
6.00 to 7.00

Tell me its pIC50 given C=CC(=O)N1CC[C@H](C(=O)N(C)[C@H](C(=O)N[C@H]2Cc3cccc(c3)-c3ccc4c(c3)c(c(-c3cccnc3[C@H](C)OC)n4CC#N)CC(C)(C)COC(=O)[C@@H]3CCCN(N3)C2=O)C(C)C)C1 [Example A510] as the entry.
7.00 to 8.00

Tell me its pIC50 given C=CC(=O)N1CCN(C(=O)N(C)[C@H](C(=O)N[C@H]2Cc3nc(cs3)-c3ccc4c(c3)c(c(-c3cccnc3[C@H](C)OC)n4CC)CC(C)(C)COC(=O)[C@@H]3CCCN(N3)C2=O)C(C)C)[C@H]2CC[C@H]21 (atropisomer, axis not shown) [Example A734] as the entry.
7.00 to 8.00

Tell me its pIC50 given C=CS(=O)(=O)N1CCC2(CCN([C@H](C(=O)N[C@H]3Cc4cc(O)cc(c4)-c4ccc5c(c4)c(c(-c4cccnc4[C@H](C)OC)n5CC)CC(C)(C)COC(=O)[C@@H]4CCCN(N4)C3=O)C(C)C)C2=O)CC1 (atropisomer, axis not shown) [Example A299] as the entry.
> 8.00

Tell me its pIC50 given C=CC(=O)N1CC[C@H](C(=O)N(C)[C@H](C(=O)N[C@H]2Cc3cc(O)cc(c3)-c3ccc4c(c3)c(c(-c3ccc(CN(C)C)nc3COC)n4CC)CC(C)(C)COC(=O)[C@@H]3CCCN(N3)C2=O)C(C)C)C1 [Example A103] as the entry.
6.00 to 7.00

###

Please provide measured IC50 for the entries that follow.
biological target: KRAS WT (Homo sapiens (Human), UniProt P01116+P62937); assay: Ras-Raf (BRAF RBD) disruption / FRET / MOA assay, KRAS WT; format: biochemical; conditions: read-out: IC50* KRAS WT FRET data
Sequence (P01116-2 other isoform, or with tags, fused parts or gaps): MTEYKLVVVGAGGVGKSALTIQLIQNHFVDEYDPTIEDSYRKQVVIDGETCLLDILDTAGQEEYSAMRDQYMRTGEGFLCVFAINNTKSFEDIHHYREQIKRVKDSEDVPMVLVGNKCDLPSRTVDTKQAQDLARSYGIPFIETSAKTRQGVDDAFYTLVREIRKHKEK
Sequence (P62937 whole entry): as the sequence (P62937 whole entry) above

// fetch IC50; item: C=CC(=O)N1CC[C@]2(CCN2C(=O)N(C)[C@H](C(=O)N[C@H]2Cc3nc(cs3)-c3ccc4c(c3)c(c(-c3cccnc3[C@H](C)OC)n4CC)CC(C)(C)COC(=O)[C@@H]3CCCN(N3)C2=O)C(C)C)C1 (atropisomer, axis not shown) ; system: KRAS WT (Homo sapiens (Human), UniProt P01116+P62937)
0.1 to 1 µM

// fetch IC50; item: CCn1c(-c2cccnc2[C@H](C)OC)c2c3cc(ccc31)-c1cc(O)cc(c1)C[C@H](NC(=O)[C@H](C(C)C)N1CCC3(CN(C(=O)/C=C/CN(C)C)C3)C1=O)C(=O)N1CCC[C@H](N1)C(=O)OCC(C)(C)C2 (atropisomer, axis not shown) ; system: KRAS WT (Homo sapiens (Human), UniProt P01116+P62937)
0.01 to 0.1 µM

// fetch IC50; item: CC#CC(=O)N1C[C@H](C)[C@H](C(=O)N(C)[C@H](C(=O)N[C@H]2Cc3cccc(c3)-c3ccc4c(c3)c(c(-c3cccnc3[C@H](C)OC)n4CC)CC(C)(C)COC(=O)[C@@H]3CCCN(N3)C2=O)C2CCCC2)C1 (atropisomer, axis not shown) ; system: KRAS WT (Homo sapiens (Human), UniProt P01116+P62937)
1 to 10 µM

// fetch IC50; item: CCn1c(-c2cccnc2[C@H](C)OC)c2c3cc(ccc31)-c1cccc(c1)C[C@H](NC(=O)[C@H](C(C)C)N(C)C(=O)C1CCN(C(=O)C#C[C@@H]3CC(F)(F)CN3C)C1)C(=O)N1CCC[C@H](N1)C(=O)OCC(C)(C)C2 (stereo partly shown) ; system: KRAS WT (Homo sapiens (Human), UniProt P01116+P62937)
1 to 10 µM
